These entries and their values trace back to ChEMBL document CHEMBL4765407.

# System: Quadruplex DNA
# Test: Stabilization of 5'-FAM/3'-TAMRA labeled telomeric G4 quadruplex DNA F21T (unknown origin) assessed as change in melting temperature at 10 microM measured after 15 mins by FRET assay
# Assay type: nucleic-acid assay
Endpoint label: ΔTm
The answer should read as a number with its unit following.

// solved cases for ΔTm follow
compound="COc1ccc2c(c1)c(=O)c1c(NCCCN3CCN(CCC(N)c4ccc5nc6ccccc6cc5c4[N+](=O)[O-])CC3)ccc3ncn2c31 (stereo not drawn)" experimental_value="33.3 °C"
compound=Cc1ccc([N+](=O)[O-])c2c(NCCCN3CCN(CCCNc4ccc5ncn6c7ccc(O)cc7c(=O)c4c56)CC3)c3ccccc3nc12 experimental_value="16.4 °C"

query: Entry under review: CN(CCCNc1c2ccccc2nc2cccc([N+](=O)[O-])c12)CCCNc1ccc([N+](=O)[O-])c2[nH]c3ccc(O)cc3c(=O)c12 . Reported ΔTm?
result: 34 °C

query: Entry under review: Cc1cc(C(N)CCN2CCN(CCCNc3ccc4ncn5c6ccccc6c(=O)c3c45)CC2)c([N+](=O)[O-])c2cc3ccccc3nc12 (stereo not drawn) . Reported ΔTm?
result: 19.2 °C

query: Entry under review: CN(CCCNc1c2ccccc2nc2cccc([N+](=O)[O-])c12)CCCNc1ccc([N+](=O)[O-])c2[nH]c3ccccc3c(=O)c12 . Reported ΔTm?
result: 24.5 °C

query: Entry under review: O=c1c2cc(O)ccc2[nH]c2c([N+](=O)[O-])ccc(NCCCN3CCN(CCCNc4c5ccccc5nc5cccc([N+](=O)[O-])c45)CC3)c12 . Reported ΔTm?
result: 16 °C

query: Entry under review: O=c1c2ccccc2[nH]c2c([N+](=O)[O-])ccc(NCCCN3CCN(CCCNc4c5ccccc5nc5cccc([N+](=O)[O-])c45)CC3)c12 . Reported ΔTm?
result: 8.5 °C

* * *

# System: HCT-116
# Test: Cytotoxicity against human HCT-116 cells assessed as reduction in cell viability measured after 72 hrs by SRB assay
# Format: functional, cell-based
# Condition summary: HCT-116, 72 h
Documented pIC50 across a set of compounds
Note on units: pIC50 is unitless, being -log10 of a concentration expressed in mol/L.

record_smiles=Cc1ccc([N+](=O)[O-])c2c(NCCCNCCCNc3ccc([N+](=O)[O-])c4[nH]c5ccc(O)cc5c(=O)c34)c3ccccc3nc12 experimental_value=7.06
record_smiles=O=c1c2ccccc2n2cnc3ccc(NCCNc4c5ccccc5nc5cccc([N+](=O)[O-])c45)c1c32 experimental_value=6.99

query: Entry under review: O=c1c2cc(O)ccc2[nH]c2c([N+](=O)[O-])ccc(NCCCN3CCN(CCCNc4c5ccccc5nc5cccc([N+](=O)[O-])c45)CC3)c12 . Reported pIC50?
result: 7.96

query: Entry under review: Cc1cc(NCCCN(C)CCCNc2ccc3ncn4c5ccc(O)cc5c(=O)c2c34)c([N+](=O)[O-])c2cc3ccccc3nc12 . Reported pIC50?
result: 7.40

query: Entry under review: O=c1c2ccccc2[nH]c2c([N+](=O)[O-])ccc(NCCCN3CCN(CCCNc4c5ccccc5nc5cccc([N+](=O)[O-])c45)CC3)c12 . Reported pIC50?
result: 7.70

query: Entry under review: Cc1cc(NCCCN(C)CCCNc2ccc3ncn4c5ccccc5c(=O)c2c34)c([N+](=O)[O-])c2cc3ccccc3nc12 . Reported pIC50?
result: 7.19

query: Entry under review: O=c1c2cc(O)ccc2n2cnc3ccc(NCCCN4CCN(CCCNc5c6ccccc6nc6cccc([N+](=O)[O-])c56)CC4)c1c32 . Reported pIC50?
result: 7.70

query: Entry under review: Cc1ccc([N+](=O)[O-])c2c(NCCCNCCCNc3ccc(C)c4[nH]c5ccccc5c(=O)c34)c3ccccc3nc12 . Reported pIC50?
result: 7.07

query: Entry under review: Cc1ccc([N+](=O)[O-])c2c(NCCCN3CCN(CCCNc4ccc([N+](=O)[O-])c5[nH]c6ccccc6c(=O)c45)CC3)c3ccccc3nc12 . Reported pIC50?
result: 7.08
